Molecular target: T1, phospholipase A2 (PLA2) (Homo sapiens (Human), UniProt O15496 43-165)
T1 construct: PLA2 as used in Biacore, MCAB binning, peptide scan and the purified-antibody functional assay; also called PLA2 antigen
T1 sequence: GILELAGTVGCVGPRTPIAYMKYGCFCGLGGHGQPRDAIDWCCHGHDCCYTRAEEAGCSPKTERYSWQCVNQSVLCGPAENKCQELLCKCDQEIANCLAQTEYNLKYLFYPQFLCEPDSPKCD
Assay: Biacore 2000, captured Ab, global 1:1 fit
Description: In the immobilization, HBS-P was used as the running buffer; in the binding studies, HBS-P, with 12 mg/mL of each BSA and dextran, was used as sample and running buffers. Data were normalized based on the individual antibody capture levels and fit globally to a 1:1 interaction model.
Consider the following binders; for each one, report its kon.
Answers are plain numbers, in M⁻¹ s⁻¹.

Completed entries (count: 3):
[[record]]
binder = "anti-PLA2 mAb 1.27 (antibody, IgG2, V domains shown) VH: EVQLVQSGAEVKKPGESLKISCKGSGYSFTSYWIGWVRQMPGKGLEWMGIIYPGDSDTRYSPSFQGQVTISADKSISTAYLQWSSLKASDTAMYYCARSWTYGMDVWGQGTTVTVSS VL: EIVLTQSPGTLSLSPGERATLSCRASQSVRSNYLTWYQQKPGQAPRLLIYGASTRATGIPDRFSGSGSGTDFTLTISRLEPEDFAVYYCQQYGSSPLTFGGGTKVEIKR"
observation_type = "kon"
number = 34500

[[record]]
binder = "anti-PLA2 mAb 1.5 (antibody, IgG2, V domains shown, also called 1.5.1) VH: EVQLVQSGAEVKKPGESLKISCKGSGYSFISYWIGWVRQMPGKGLEWMGIIYPGDSDTRYSPSFQGQVTISADKSISTAYLQWSSLKASDTAMYYCARHWSYGMDVWGQGTTVTVSS VL: EIVLTQSPGTLSLSPGERATLSCRASQSVRSGYLAWYQQRPGQAPRFLIYGASSRATGIPDRFSGSGSGTDFTLTISRLEPEDFAVYYCQQYGSSPLTFGGGTKVEIKR"
observation_type = "kon"
number = 48700

[[record]]
binder = "anti-PLA2 mAb 2.7 (antibody, IgG4, V domains shown, also called 2.7.1) VH: GVQLVQSGAEVKKPGESLKISCKGSGYSFTNYWIGWVRQMPGKGLEWMGIIYPGDSDTRYSPSFQGQVTISADKSISTAYLQWSSLKASDTAIYYCARGGVGAFDIWGQGTMVTVSS VL: EIVLTQSPGTLSLSPGERATLSCRASQIIRRSSLAWYQEKPGQAPRLLIYGASSRATGIPDRFSGSGSGTDFTLTISRLEPEDFAVYYCQQYGSSPPFTFGPGTKVDIKR"
observation_type = "kon"
number = 99600


Here is another binder to look at.
Record anti-PLA2 mAb 2.23 (antibody, IgG4, V domains shown) VH: QVQLEESGGGVVQPGRSLRLSCAASGFTFSSYGMHWVRQGPGKGLEWVAVIWYDGSNKKYADSVKGRFTISRDNSKNTLYLQMNSLRAEDTAVYYCARDGPIFGVVMGYWGQGTLVTVSS VL: DIQMTQSPSSLSASVGDRVTITCRTSQSISNYLNWFQQKPGKAPILLIYAASSLQSGVPSRFSGSGSGTDFTLTISSLQPEDFATYYCHQSYSIPITFGQGTRLEIKR , field kon: 8270
